Target: Fc-fusion protein of human carbonic anhydrase IX (human, UniProt Q16790 38-414)
Assay: SPR, captured hCAIX-Fc; pKD category A: >8.0
Starred links: 1 amine or outer side, 2 acyl side, 3 side chain; linkers in the order of their positions; H or OH if unused. Positions of bridges follow the written chain, without caps; N, C: chain ends. Non-standard residues stand in square brackets, D forms with d. *: point of attachment. Aph(SaPr) = 4-amino-L-phenylalanine, ring amine acylated by 3-sulfamoylpropanoic acid, NS(=O)(=O)CCC(=O)Nc1ccc(C[C@H](N[*:1])C(=O)[*:2])cc1; DOTA = O=C(O)CN1CCN(CC(=O)O)CCN(CC(=O)*)CCN(CC(=O)O)CC1; mXylylene = c1cc(C[*:1])cc(C[*:2])c1; dNMeA = CN[C@H](C)C(=O)O; Dap = NC[C@H](N)C(=O)O
Reported values of pKD for individual entries
Endpoint Name: pKD

>>> val("{DOTA}-DCE[dP]D[Aph(SaPr)]LTW[Dap]C-NH2 (lactam 1-10; linker 2-11 via mXylylene; SMILES CC(C)C[C@@H]1NC(=O)[C@H](Cc2ccc(NC(=O)CCS(N)(=O)=O)cc2)NC(=O)[C@H](CC(=O)O)NC(=O)[C@H]2CCCN2C(=O)[C@H](CCC(=O)O)NC(=O)[C@@H]2CSCc3cccc(c3)CSC[C@@H](C(N)=O)NC(=O)[C@H](CNC(=O)C[C@H](NC(=O)CN3CCN(CC(=O)O)CCN(CC(=O)O)CCN(CC(=O)O)CC3)C(=O)N2)NC(=O)[C@H](Cc2c[nH]c3ccccc23)NC(=O)[C@H]([C@@H](C)O)NC1=O) [3BP-4489]")
"> 8 pkd"
>>> val("Ac-VYCE[dNMeA]DWLTWAC-NH2 (linker 3-12 via mXylylene; SMILES CC(=O)N[C@H](C(=O)N[C@@H](Cc1ccc(O)cc1)C(=O)N[C@H]1CSCc2cccc(c2)CSC[C@@H](C(N)=O)NC(=O)[C@H](C)NC(=O)[C@H](Cc2c[nH]c3ccccc23)NC(=O)[C@H]([C@@H](C)O)NC(=O)[C@H](CC(C)C)NC(=O)[C@H](Cc2c[nH]c3ccccc23)NC(=O)[C@H](CC(=O)O)NC(=O)[C@@H](C)N(C)C(=O)[C@H](CCC(=O)O)NC1=O)C(C)C) [3BP-3281]")
"> 8 pkd"
